assay_target: Nuclear receptor subfamily 1 group I member 2 (Homo sapiens)
experimental_details: Human pregnane X receptor (PXR) small molecule agonists, qHTS assay (AID 1346982); further: nearly all actives have a fitted effect of over 35% in size
condition_description: PXR-Luc HepG2, CYP3A4 luciferase reporter, 24 h; series mostly up to 92.4 µM
Inconclusive results are not listed. The source made the active and inactive calls. The call rests on the fitted dose curve; in most records, active means well fitted activation curve with a large enough effect in the repeat runs; inconclusive means weak or mixed curves; inactive means no such curve, though single readings can be large or run the other way.
Labels: 1 for active, 0 for inactive

CCC(C)c1cc([N+](=O)[O-])cc([N+](=O)[O-])c1OC(=O)OC(C)C (stereo not drawn) ... 1
CCCCCCCCCC(=O)N(C)C ... 1
CCC(C)(C)c1cc(O)c(C(C)(C)CC)cc1O ... 1
CCCN(CCc1cccs1)[C@H]1CCc2c(O)cccc2C1 ... 0
CO[Si](CCC1CCC2OC2C1)(OC)OC (stereo not drawn) ... 0
CC(C)(c1cc(Br)c(OCCO)c(Br)c1)c1cc(Br)c(OCCO)c(Br)c1 ... 1
CCCC(C)CCC(C)=O (stereo not drawn) ... 0
O=C1OC(=O)c2cccc3cccc1c23 ... 1
C=C(C)CCCC ... 0
O=C(O)CC(=O)O ... 0
Clc1cc(Cl)c(-c2c(Cl)c(Cl)cc(Cl)c2Cl)cc1Cl ... 0
Brc1ccccn1 ... 0
C[C@@H]1CC[C@H]2C(C)(C)[C@H]3C[C@@]12CC[C@@]3(C)O ... 0
Cc1c(C)n(Cc2ccccc2)c2ccc(C(=O)OCCN(C)C)cc12 ... 1
CCCCCCS ... 0
O=C1c2c(O)ccc([N+](=O)[O-])c2C(=O)c2c([N+](=O)[O-])ccc(O)c21 ... 0
Cc1cc(Nc2ccc(O)cc2)ccc1N ... 1
Nc1cc(Cl)c([N+](=O)[O-])cc1O ... 1
CCN(CC)c1ccc(N)cc1 ... 0
CC(C)CCOCCC(C)C ... 0
CCCCCCCC/C=C\CCCCCCCC(=O)N(C)CC(=O)O ... 0
Cn1cnc2ncnc(N)c21 ... 0
CN(C)CCOC(c1ccccc1)c1ccccc1 (tested in a mixture with another compound) ... 1
O=C1OC(OC(=O)c2cccnc2Nc2cccc(C(F)(F)F)c2)c2ccccc21 (stereo not drawn) ... 0
C=CC(C)(CCC=C(C)C)OC(=O)/C=C/c1ccccc1 (stereo not drawn) ... 1
Clc1nc2ccccc2s1 ... 0
CC(C)=CC1CC(C)CCO1 (stereo not drawn) ... 0
CCCCCCCC/C=C/CCCOC(C)=O ... 0
CCCCCCCC/C=C\CCCCCCCC(=O)OCCOC(=O)CCCCCCC/C=C\CCCCCCCC ... 1
CCc1cccc(C)c1 ... 0
C=CC(=C)CCC=C(C)C ... 0
CCCCCCOc1cc(C)c(O)c(C)c1C ... 1
Cn1cccc1 ... 0
Cc1cccc(C)n1 ... 0
CC(C)c1cccc(C(C)C)c1N1C(=O)c2ccc(O)cc2C1=O ... 1
O=C1C=CC(=O)N1c1ccccc1 ... 0
c1cc(OCC2CO2)cc(OCC2CO2)c1 (stereo not drawn) ... 1
CCN(CC)CCCN(c1ccccc1)C1Cc2ccccc2C1 ... 0
Oc1ccc(-c2ccc(O)cc2)cc1 ... 1
CCCCCCCC(OC)OC ... 0
CN1CN(C)CN(C)C1 ... 0
CCCCCCCCCCCCCCCC ... 0
O=CC1CC1 ... 0
CCc1ccc(O)c(C(C)(C)C)c1 ... 0
CO[C@H]1C=CO[C@@]2(C)Oc3c(C)c(O)c4c(O)c(cc(O)c4c3C2=O)NC(=O)/C(C)=C\C=C/[C@H](C)[C@H](O)[C@@H](C)[C@@H](O)[C@@H](C)[C@H](OC(C)=O)[C@@H]1C ... 1
c1cc[nH]c1 ... 0
CC(C)N=C(N)/N=C(\N)Nc1ccc(Cl)cc1 ... 0
CCCCCCCOC(=O)c1ccc(O)cc1 ... 1
CC(=O)OC1CCCCC1 ... 0
OCCCCl ... 0
CCC1CCCCC1 ... 0
C=CC(=O)OCCC#N ... 0
c1ccc(Sc2ccccc2)cc1 ... 0
O=C1NC2CCCCN2C12CCN(CCCN1c3ccccc3CCc3ccc(Cl)cc31)CC2 (stereo not drawn) ... 0
C[C@@]12C(=O)OC(=O)[C@]1(C)C1CCC2O1 ... 1
C=CC/C=C/C/C=C/C/C=C/C ... 0
Cc1cncc(C)c1 ... 0
CC[N+](CC)(CC)Cc1ccccc1 ... 0

* * *

experimental_details: qHTS RealTime-Glo MT Cell Viability Assay in HEK293 cells - 16 hour (AID 1224872); further: nearly all actives have a fitted effect of over 50% in size
condition_description: RealTime-Glo luminescence; series mostly up to 76.8 µM
Records with an inconclusive call do not appear. The source made the active and inactive calls. Calls follow the shape of the dose curve; as a rule, active = well fitted cell-killing curve with a large enough effect in the repeat runs; inconclusive = weak or mixed curves, or effect the other way; inactive = flat fitted curve, though single readings scatter.
Labels: 1.0 = active, 0.0 = inactive

CCCCC(CC)COC(=O)c1ccc(O)cc1 (stereo unspecified) ... 1.0
CCN(CC)CCNc1ccc(CO)c2sc3ccccc3c(=O)c12 ... 1.0
CC(=O)O[C@@H]1C[C@@H]2CC[C@@]1(C)C2(C)C ... 0.0
Cc1c(-c2ccc(O)cc2)n(Cc2ccc(OCCN3CCCCCC3)cc2)c2ccc(O)cc12 ... 1.0
CC1CNCC(C)O1 (stereo unspecified) ... 0.0
S=P(N1CC1)(N1CC1)N1CC1 ... 0.0

* * *

experimental_details: qHTS assay for small molecule agonists of the antioxidant response element (ARE) signaling pathway - cell viability counter screen (AID 743203); further: nearly all actives have a fitted effect of over 55% in size
condition_description: ARE-bla HepG2 viability, CellTiter-Glo luminescence, 16 h; series mostly up to 73.3 µM
Inconclusive results are not listed. Activity calls are given as the source filed them. Calls follow the shape of the full dose curve.
quantity_kind: outcome

Cc1occc1SSc1ccoc1C ... inactive
Cc1ccc(-n2[nH]c(C)c(N=Nc3cccc(-c4cccc(C(=O)O)c4)c3O)c2=O)cc1C ... inactive
c1ccc(Sc2ccccc2)cc1 ... inactive

* * *

experimental_details: qHTS assay to identify small molecule antagonists of the sonic hedgehog signaling (Shh) pathway (AID 1259369); further: nearly all actives have a fitted effect of over 45% in size
condition_description: NIH/3T3 Gli1-Luc reporter, Shh antagonist, luminescence 24 h; series mostly up to 92.4 µM
Records with an inconclusive call do not appear. Calls of active or inactive are those of the source. Calls follow the shape of the full dose curve.
Labels: active, inactive

Cc1cc(=O)[nH]c(=O)[nH]1 ... inactive
c1cc[nH]c1 ... inactive
Brc1ccccn1 ... inactive
c1ccc(Sc2ccccc2)cc1 ... active
CCO[Si](C)(C)OCC ... inactive
CN(C)c1ccc(N=Nc2ccccc2C(=O)O)cc1 ... active
CC1=C(/C=C/C(C)=C/C=C/C(C)=C\C=O)C(C)(C)CCC1 ... active
O=C(NO)c1ccccc1 ... active
CO[Si](CCCNCCNCCN)(OC)OC ... inactive
CC(C)(C)c1n[nH]c(=O)n(N)c1=O ... inactive
CC(C(O)c1ccccc1)N(C)CCOC(c1ccccc1)c1ccccc1 (centres undefined) ... active
C/C=C/c1ccc(OC)c(OC)c1 ... inactive
CCC(C)c1cc([N+](=O)[O-])cc([N+](=O)[O-])c1OC(=O)OC(C)C (centres undefined) ... active
CCOC(OCC)C(=O)c1ccccc1 ... inactive
C[C@@H]1CC[C@H]2C(C)(C)[C@H]3C[C@@]12CC[C@@]3(C)O ... inactive
CCNc1nc(NC(C)CC)nc(OC)n1 (centres undefined) ... active
C/C=C/C(=O)Oc1c(CCCCCC(C)C)cc([N+](=O)[O-])cc1[N+](=O)[O-] ... active
COC(=O)NCCC[Si](OC)(OC)OC ... inactive
O=C(O)c1cccc(Cl)n1 ... active
NC(=O)c1nc(-c2cccc(-c3cc(F)ccc3OCC(F)(F)C(F)(F)F)c2)n[nH]1 ... active
O=C1OC(=O)c2cccc3cccc1c23 ... inactive
CCN(CC)CCSC(=O)C(c1ccccc1)c1ccccc1 ... active
CCc1cccc(C)c1 ... inactive
CC(C)(C)CC(C)(C)c1ccccc1O ... active
CN1[C@@H]2CC[C@@H]1CC(OC(=O)C(CO)c1ccccc1)C2 (some centres undefined) ... inactive
CCCCCCCC/C=C\CCCCCCCC(=O)N(C)CC(=O)O ... inactive
C[Si](C)(C)Cl ... inactive
CC1(C)C(=O)N(CO)C(=O)N1CO ... inactive
COC(=O)C1=C(C)NC(C)=C(C(=O)OCCCN2CCC(c3ccccc3)(c3ccccc3)CC2)C1c1cccc([N+](=O)[O-])c1 (centres undefined) ... active
Clc1cc(Cl)c(-c2c(Cl)c(Cl)cc(Cl)c2Cl)cc1Cl ... inactive
CN(C)CCCN1c2ccccc2Sc2ccc(C(F)(F)F)cc21 ... active
CN1CN(C)CN(C)C1 ... inactive
CCO[Si](CCCSSSSCCC[Si](OCC)(OCC)OCC)(OCC)OCC ... inactive
Brc1ccccc1-c1ccccc1 ... inactive
CC1CNCC(C)O1 (centres undefined) ... inactive
CC(=O)c1ccccc1N ... inactive
CCCCCCCC(OC)OC ... inactive
CCc1ccc(O)c(C(C)(C)C)c1 ... inactive
C=CC(=O)OCCOCC(CC)(COCCOC(=O)C=C)COCCOC(=O)C=C ... active
CC(C)c1ccc(O)c(C(C)C)c1 ... inactive
COc1ccc2sc(C(=O)Nc3nnn[nH]3)c(OC(C)C)c2c1 ... active
CCN(CC)c1ccc(N)cc1 ... active
CCOCN(C(=O)CS(=O)(=O)O)c1c(C)cccc1CC ... inactive
CCc1cccc(CC)c1NC(=O)C(=O)O ... inactive
C=CC(=O)OCCC#N ... inactive
CC(=O)Nc1ccc(O)cc1 ... inactive
CNC(=S)NN ... active
C[C@]12CC[C@H]3C(=CCc4cc(O)ccc43)[C@@H]1CCC2=O ... active
CCCCOc1ccc(C(=O)CCN2CCCCC2)cc1 ... inactive
CC[N+](CC)(CC)Cc1ccccc1 ... inactive
C=CC(=O)OCCN(CC)CC ... inactive
CCCCCCC(C)OC(=O)COc1nc(F)c(Cl)c(N)c1Cl (centres undefined) ... inactive
O=C1c2c(O)ccc([N+](=O)[O-])c2C(=O)c2c([N+](=O)[O-])ccc(O)c21 ... active
CCC(C)(C)c1cc(O)c(C(C)(C)CC)cc1O ... active
